assay: soluble on expression in E. coli; label from the status in PepcDB or PDB records
experimental-endpoint: soluble on expression in E. coli

biopolymer-sequence	experimental-endpoint	observed-value
MGSDKIHHHHHHMNLLTDIFCQKPKRETAMTTETHYDTQAANSCYYQVQGSEVEIFNFAKTHDLPVLIKGPTGCGKTRFVEFMAESLGRELVTVSCHDDLTAADLLGRHLVSSEGTFWQDGPLTRAVRHGGICYLDEIIEARKDTTVVLHSLSDHRRELHLERTGEVIKAHKDFMLVVSYNPGYQNMMKGLKPSTRQRFVAMSFDYPSPEQEAEILVHEAGITTELAHTLVKLGADIRRLSDIDLKAAVSTRLLIYAAKMMSSGCHAQMACLHCIIEPLTDEKQTIEALTQLVNAHF	soluble on expression in E. coli	not soluble
MSLNRLSIPYSNKSLDYYFFVIQEASVKRAVLARSGEFQATNANFDNTRQLEQWQSLLLSRPSAIISDPIDSQAIVSAIRRYNREKIPVGIIDTPADGGDVAITVSFDNFQGGVMAAEEIVNRLITRYGRPKGTVLNCYGALASVAWRLRKEGMDSVFAKYPGITYLARPTDGQLEKMLSVTLSTLSEYPDLDAVHAPSDSPSRGIVTALQQKGRWKKIGEAGHVIFVNIDGEPIALKWIQDGYMDACISQDPVAYGEIAVDMIVKHALKGEAVPLGTYQDKKYFWESGEGHHHHHH	soluble on expression in E. coli	not soluble

###

experiment: soluble on expression in E. coli; label from the status in PepcDB or PDB records

biopolymer-sequence	soluble on expression in E. coli
MGSDKIHHHHHHMGILSDKDIAYLKDLFGKELKRKVKIVFFKTEDKTRCQYCEITEQVLEELVSVDPKLELEIHDFDSDKEAVEKYQVEMVPATILLPEDGKDYGIRFYGVPSGHEFGTLIQDIITVSEGKPQLSEESIQKLQSLEEPIRISVFVTPTCPYCPRAVLMAHNMAMASDKIIGEMIEANEYWELSEKFGVSSVPHIVVNRDPSKFFVGAYPEKEFINEVLRLAKG	not soluble
IKATYETFSSPNGHGEGRGYLVMPQKKTIKSPTVLVIHENRGLNPYIKDVARRLAKDGFIAFAPDALYPLGGYPGNDDEGRAMQKEMDRAKIEQDFIAAAKFIKQHEHGNGK	not soluble

###

test: soluble on expression in E. coli; label from the status in PepcDB or PDB records

biopolymer-sequence	soluble on expression in E. coli
MTGFSISMDLAPKQSRSDRSTHEGTVEQRLKFFMQDVTGRALVMMESATQGQHGIAMDLVQEAFIALHKSYADKATDEWYPLFYTILNNKLQDWRRKEARRSNPFSFFKKVSLDSDEEVTDVVDETTPNPFEFLDQAVTIEEIQAAIAQLPVRQQQAFMLRAWEGFDTQTTAQIMNCSEGSVKTHYHRAIQGLRASLAHLNPSLGGSSDESR	not soluble
MGSDKIHHHHHHMTAELLRLLENVLRVGVVTEIDVDEWRVRVSAGGLHTDWLRWDALRAGSFSVWIPPSVGEQVLLGCIGGNPETAVIIGSIYSAANPAPGSSSSELVIKAPDGATVRYDAAAGALEASGMKTARIVASVGVTLETPVVECTEHLVAKTFSFTEGGTMKGDVNHTGGAFKSNGVQADEHSHGNVLNGPGWSDGTR	not soluble
MTDEERIELQQNNPLHGLKLETMLQELVDFYGWDILDTAMRFNCFNTKPSIASSVKYLKKTEWAREKLENFYLYRFKRMPRASEEEYNLPPRARTFPHGLEPKEPMPLTVDSILNSQAKAASSFKKRSSRGRPTRRLEHHHHHH	soluble
MRKMMQNHQNTRFYFSASLILFNDKEMGKRSNYHHLVAFGGFFKALPDDGDLLTRFVTVEKLKKLPHCKFPFFPVKKPSLSPKMQPSYDADDFMRRGFFGSFIGFRKRSSSKPGELYAKNVTYSQIFSRHLID	soluble
